test-readout: melting point

These recorded examples may help you get a feel for the data.
Cn1ccc(C(=O)c2ccc(Cc3ccc(F)cc3)o2)c(O)c1=O [Compound J-4] ... 145 to 147 °C
CC(C)(C)N1CC(c2cc(CCc3ccccc3)ncn2)=C(O)C1=O ... 199 to 200 °C
CN1CC(C(=O)c2ccoc2Cc2ccc(F)cc2)=C(O)C1=O ... 171 to 172 °C

Proceed to the following item.
Retrieve melting point measured for O=C1NCCC(C(=O)c2ccc(Cc3ccc(F)cc3)o2)=C1O and print it.
166 to 168 °C

###

melting point reference

CN1CC(c2ncc(Cc3ccc(F)cc3)s2)=C(O)C1=O ... 222 to 224 °C
O=c1c(O)c(-c2ccccn2)oc2cccc(OCc3ccc(F)cc3)c12 ... 213 °C
O=C(c1ccc(Cc2ccc(F)cc2)o1)c1cc[nH]c(=O)c1O ... 229 to 231 °C

Return melting point for the following compound: CN1CC(c2cc(C(Cc3ccc(F)cc3)Cc3ccc(F)cc3)ncn2)=C(O)C1=O
162 to 164 °C

Indicate the recorded melting point value for this compound: Cc1nc(=O)c(O)c(-c2ccc(Oc3ccc(F)cc3)cn2)[nH]1
255 to 256 °C

Report melting point for CC(C)N1CC(c2cnc(Cc3ccc(F)cc3)cn2)=C(O)C1=O
207 to 209 °C

Item COc1ccccc1Cc1ccc(C(=O)C2=C(O)C(=O)N(C(C)C)C2)o1 : provide melting point
123 to 124 °C

Output measured melting point for this item: CC(C)N1CC(c2cc(OCc3ccccc3)ncn2)=C(O)C1=O
177 to 178 °C

Provide only the value of recorded melting point for CCC(CC)N1CC(c2cc(CCc3ccccc3)ncn2)=C(O)C1=O
182 to 183 °C

Answer with reported melting point of O=C1NCC(C(=O)c2ccc(Cc3ccc(F)cc3)o2)=C1O
178 to 179 °C

Return melting point for the following compound: CN1CC(C(=O)c2nc(Cc3ccc(F)cc3)co2)=C(O)C1=O
209 to 210 °C

For CN1CC(C(=O)c2coc(Cc3ccc(F)cc3)c2)=C(O)C1=O , write its melting point.
158 to 160 °C

###

Here, each record is paired with measured melting point data.

CC(C)N1CC(C(=O)c2ccc(Cc3ccccc3)o2)=C(O)C1=O ... 162 to 163 °C
CC(C)N1CC(c2ncc(CCc3ccc(F)cc3)s2)=C(O)C1=O ... 208 to 210 °C

Consider the record given below.
Tell me measured melting point for CN1CC(C(=O)c2cccn2Cc2ccc(F)cc2)=C(O)C1=O please.
150 to 151 °C
